# credit: ChEMBL document CHEMBL1122735

- test-summary: Compound was evaluated for the chronic aerobic cytotoxicity in chinese hamster lung fibroblast like cells after 7 days exposure in air at 37 degree Centigrade
- Format: cell-based, Cricetulus griseus
- applied-conditions: 168 h
Assignment: determine reported log10(Cytotoxicity) for the given molecules.
Hey, these are logged values: log10 of Cytotoxicity, µM being the unit before logging.

molecule: COCC(O)Cn1ccnc1[N+](=O)[O-] (stereo unspecified) [MISONIDAZOLE]
obs-value: 3.11
//
molecule: CC(=O)Nc1nc(NC(CO)C(O)CO)c(Cl)nc1[N+](=O)[O-] (stereo unspecified)
obs-value: 2.60
//
molecule: O=[N+]([O-])c1cnc(NC(CO)C(O)CO)cn1 (stereo unspecified)
obs-value: 2.81
//
molecule: CC(=O)Nc1nc(NCC(O)CO)c(Cl)nc1[N+](=O)[O-] (stereo unspecified)
obs-value: 1.98
//
molecule: Nc1nc(NCC(O)CO)c(Cl)nc1[N+](=O)[O-] (stereo unspecified)
obs-value: 2.76

Any idea what log10(Cytotoxicity) was measured for Nc1nc(NCCO)c(Cl)nc1[N+](=O)[O-] ? 2.41

* * *

- test-summary: Compound was evaluated for the acute cytotoxicity chinese hamster lung fibroblast like cells after 2 hr exposure in nitrogen at 22 degree Centigrade
- Assay type: cell-based, Cricetulus griseus
Assignment: determine reported Acute toxicity for the given molecules.

Below, 3 molecules whose answers are already recorded.
molecule: CC(=O)Nc1nc(NC(CO)C(O)CO)c(Cl)nc1[N+](=O)[O-] (stereo not given)
Acute toxicity: > 3.3 mM

molecule: O=[N+]([O-])c1cnc(NC(CO)C(O)CO)cn1 (stereo not given)
Acute toxicity: > 5 mM

molecule: Nc1nc(NCC(O)CO)c(Cl)nc1[N+](=O)[O-] (stereo not given)
Acute toxicity: > 4 mM

Hey, can you go through the list below and give me Acute toxicity for every item?
1. COC(=O)c1nc(NCC(O)CO)cnc1[N+](=O)[O-] (stereo not given)
2. Nc1nc(NCCO)c(Cl)nc1[N+](=O)[O-]

> 5 mM
> 3 mM
